Origin of measurements: patent US10457710B2

Listed here: items and their measured Minimum inhibitory concentration.
- System: clinical strains of K. pneumoniae
- Experimental details: MIC, microdilution, clinical strains
- Type: cell-based
- Condition details: Klebsiella pneumoniae strain 1, Muller Hinton broth-cation adjusted, 0.02% BSA, 0.2% acetic acid
Where a SMILES comes first, the peptide text is derived from it. [ ]: non-standard residue; d: D form.

Molecule	Minimum inhibitory concentration
CC(C)C[C@@H](NC(=O)[C@H](N)CCCCN)C(=O)N[C@H](CCCCN)C(=O)N[C@H](Cc1c[nH]c2ccccc12)C(=O)N[C@H](Cc1ccccc1)C(=O)N[C@H](Cc1c[nH]c2ccccc12)C(=O)N[C@H](CC(C)C)C(=O)N[C@H](Cc1ccccc1)C(=O)N[C@H](CCCCN)C(=O)N[C@H](CCCCN)C(=O)N[C@H](CCCNC(=N)N)C(=O)O [Chain311D] (H-[dK][dL][dK][dW][dF][dW][dL][dF][dK][dK][dR]-OH)	8
CC(C)C[C@@H](NC(=O)[C@@H](CCCCN)NC(=O)[C@@H](CCCCN)NC(=O)[C@@H](Cc1ccccc1)NC(=O)[C@@H](CC(C)C)NC(=O)[C@@H](Cc1c[nH]c2ccccc12)NC(=O)[C@@H](CCCNC(=N)N)NC(=O)[C@@H](Cc1c[nH]c2ccccc12)NC(=O)[C@@H](CCCCN)NC(=O)[C@@H](CCCNC(=N)N)NC(=O)[C@H](N)CCCCN)C(=O)O [Chain310D] (H-[dK][dR][dK][dW][dR][dW][dL][dF][dK][dK][dL]-OH)	64
CC(C)C[C@@H](NC(=O)[C@H](N)CCCNC(=N)N)C(=O)N[C@H](CCCCN)C(=O)N[C@H](Cc1c[nH]c2ccccc12)C(=O)N[C@H](Cc1ccccc1)C(=O)N[C@H](Cc1c[nH]c2ccccc12)C(=O)N[C@H](CC(C)C)C(=O)N[C@H](Cc1ccccc1)C(=O)N[C@H](CCCNC(=N)N)C(=O)N[C@H](CCCCN)C(=O)N[C@H](CCCNC(=N)N)C(=O)O [Chain307D] (H-[dR][dL][dK][dW][dF][dW][dL][dF][dR][dK][dR]-OH)	8
CC[C@@H](C)[C@@H](NC(=O)[C@@H](CC(C)C)NC(=O)[C@@H](CCCNC(=N)N)NC(=O)[C@H](N)CCCNC(=N)N)C(=O)N[C@H](Cc1c[nH]c2ccccc12)C(=O)N[C@H](CCCNC(=N)N)C(=O)N[C@H](CCCNC(=N)N)C(=O)N[C@H](Cc1ccccc1)C(=O)N[C@H](CCCCN)C(=O)N[C@H](Cc1c[nH]c2ccccc12)C(=O)N[C@H](CC(C)C)C(=O)N[C@H](CCCNC(=N)N)C(=O)O [Chain204D] (H-[dR][dR][dL][dI][dW][dR][dR][dF][dK][dW][dL][dR]-OH)	8
CC(C)C[C@@H](NC(=O)[C@H](N)CCCNC(=N)N)C(=O)N[C@H](CCCCN)C(=O)N[C@H](Cc1c[nH]c2ccccc12)C(=O)N[C@H](Cc1ccccc1)C(=O)N[C@H](CC(C)C)C(=O)N[C@H](CC(C)C)C(=O)N[C@H](Cc1ccccc1)C(=O)N[C@H](CCCNC(=N)N)C(=O)N[C@H](CCCCN)C(=O)N[C@H](CCCNC(=N)N)C(=O)O [Chain308D] (H-[dR][dL][dK][dW][dF][dL][dL][dF][dR][dK][dR]-OH)	4

###

- System: clinical strains of S. pneumoniae
- Experimental details: MIC, microdilution, clinical strains
- Format: cell-based
- Condition details: Streptococcus pneumoniae strain 3, Muller Hinton broth-cation adjusted, 0.02% BSA, 0.2% acetic acid
Where a SMILES comes first, the peptide text is derived from it. [ ]: non-standard residue; d: D form.
Listed here: items and their measured Minimum inhibitory concentration.

Compound	Minimum inhibitory concentration
CC(C)C[C@@H](NC(=O)[C@@H](CCCCN)NC(=O)[C@@H](Cc1c[nH]c2ccccc12)NC(=O)[C@@H](CCCCN)NC(=O)[C@@H](C)NC(=O)[C@@H](Cc1c[nH]cn1)NC(=O)[C@@H](CC(C)C)NC(=O)[C@@H](CCCNC(=N)N)NC(=O)[C@@H](Cc1c[nH]c2ccccc12)NC(=O)[C@H](N)Cc1c[nH]c2ccccc12)C(=O)N[C@H](Cc1c[nH]c2ccccc12)C(=O)O [Chain109D] (H-[dW][dW][dR][dL][dH][dA][dK][dW][dK][dL][dW]-OH)	2
CC(C)C[C@@H](NC(=O)[C@H](N)CCCCN)C(=O)N[C@H](CCCCN)C(=O)N[C@H](Cc1c[nH]c2ccccc12)C(=O)N[C@H](Cc1ccccc1)C(=O)N[C@H](Cc1c[nH]c2ccccc12)C(=O)N[C@H](CC(C)C)C(=O)N[C@H](Cc1ccccc1)C(=O)N[C@H](CCCCN)C(=O)N[C@H](CCCCN)C(=O)N[C@H](CCCNC(=N)N)C(=O)O [Chain311D] (H-[dK][dL][dK][dW][dF][dW][dL][dF][dK][dK][dR]-OH)	16
CC[C@@H](C)[C@@H](NC(=O)[C@@H](Cc1c[nH]c2ccccc12)NC(=O)[C@H](N)CCCCN)C(=O)N[C@@H](C(=O)N[C@H](Cc1c[nH]c2ccccc12)C(=O)N[C@H](CCCNC(=N)N)C(=O)N[C@H](Cc1c[nH]c2ccccc12)C(=O)N[C@H](CCCNC(=N)N)C(=O)N[C@H](Cc1ccccc1)C(=O)N[C@H](CCCCN)C(=O)N[C@H](CCCNC(=N)N)C(=O)O)C(C)C [Chain201D] (H-[dK][dW][dI][dV][dW][dR][dW][dR][dF][dK][dR]-OH)	2
CC(C)C[C@@H](NC(=O)[C@H](N)CCCNC(=N)N)C(=O)N[C@H](CCCCN)C(=O)N[C@H](CCCNC(=N)N)C(=O)N[C@H](Cc1c[nH]c2ccccc12)C(=O)N[C@H](CCCNC(=N)N)C(=O)N[C@H](CC(C)C)C(=O)N[C@H](Cc1ccccc1)C(=O)N[C@H](CCCNC(=N)N)C(=O)N[C@H](CCCCN)C(=O)N[C@H](CCCNC(=N)N)C(=O)O [Chain306D] (H-[dR][dL][dK][dR][dW][dR][dL][dF][dR][dK][dR]-OH)	64
CC[C@@H](C)[C@@H](NC(=O)[C@@H](CC(C)C)NC(=O)[C@@H](CCCNC(=N)N)NC(=O)[C@H](N)CCCNC(=N)N)C(=O)N[C@H](Cc1c[nH]c2ccccc12)C(=O)N[C@H](CCCNC(=N)N)C(=O)N[C@H](CCCNC(=N)N)C(=O)N[C@H](Cc1ccccc1)C(=O)N[C@H](CCCCN)C(=O)N[C@H](Cc1c[nH]c2ccccc12)C(=O)N[C@H](CC(C)C)C(=O)N[C@H](CCCNC(=N)N)C(=O)O [Chain204D] (H-[dR][dR][dL][dI][dW][dR][dR][dF][dK][dW][dL][dR]-OH)	4
CC(C)C[C@@H](NC(=O)[C@H](N)CCCNC(=N)N)C(=O)N[C@H](CCCCN)C(=O)N[C@H](Cc1c[nH]c2ccccc12)C(=O)N[C@H](Cc1ccccc1)C(=O)N[C@H](CC(C)C)C(=O)N[C@H](CC(C)C)C(=O)N[C@H](Cc1ccccc1)C(=O)N[C@H](CCCNC(=N)N)C(=O)N[C@H](CCCCN)C(=O)N[C@H](CCCNC(=N)N)C(=O)O [Chain308D] (H-[dR][dL][dK][dW][dF][dL][dL][dF][dR][dK][dR]-OH)	8
CC(C)C[C@@H](NC(=O)[C@@H](CCCCN)NC(=O)[C@@H](CCCCN)NC(=O)[C@@H](Cc1ccccc1)NC(=O)[C@@H](CC(C)C)NC(=O)[C@@H](Cc1c[nH]c2ccccc12)NC(=O)[C@@H](CCCNC(=N)N)NC(=O)[C@@H](Cc1c[nH]c2ccccc12)NC(=O)[C@@H](CCCCN)NC(=O)[C@@H](CCCNC(=N)N)NC(=O)[C@H](N)CCCCN)C(=O)O [Chain310D] (H-[dK][dR][dK][dW][dR][dW][dL][dF][dK][dK][dL]-OH)	128
CC(C)C[C@@H](NC(=O)[C@@H](Cc1c[nH]c2ccccc12)NC(=O)[C@@H](Cc1ccccc1)NC(=O)[C@@H](Cc1c[nH]c2ccccc12)NC(=O)[C@@H](CCCCN)NC(=O)[C@@H](CCCNC(=N)N)NC(=O)[C@H](N)Cc1c[nH]c2ccccc12)C(=O)N[C@H](Cc1ccccc1)C(=O)N[C@H](CCCCN)C(=O)N[C@H](CCCCN)C(=O)N[C@H](CCCNC(=N)N)C(=O)O [Chain309D] (H-[dW][dR][dK][dW][dF][dW][dL][dF][dK][dK][dR]-OH)	64

###

- System: clinical strains of E. cloacae
- Experimental details: MIC, microdilution, clinical strains
- Format: cell-based
- Condition details: Enterobacter cloacae strain 2, Muller Hinton broth-cation adjusted, 0.02% BSA, 0.2% acetic acid
Where a SMILES comes first, the peptide text is derived from it. [ ]: non-standard residue; d: D form.

Compound	Minimum inhibitory concentration
CC(C)C[C@@H](NC(=O)[C@@H](CCCCN)NC(=O)[C@@H](CCCCN)NC(=O)[C@@H](Cc1ccccc1)NC(=O)[C@@H](CC(C)C)NC(=O)[C@@H](Cc1c[nH]c2ccccc12)NC(=O)[C@@H](CCCNC(=N)N)NC(=O)[C@@H](Cc1c[nH]c2ccccc12)NC(=O)[C@@H](CCCCN)NC(=O)[C@@H](CCCNC(=N)N)NC(=O)[C@H](N)CCCCN)C(=O)O [Chain310D] (H-[dK][dR][dK][dW][dR][dW][dL][dF][dK][dK][dL]-OH)	64
CC(C)C[C@@H](NC(=O)[C@H](N)CCCNC(=N)N)C(=O)N[C@H](CCCCN)C(=O)N[C@H](CCCNC(=N)N)C(=O)N[C@H](Cc1c[nH]c2ccccc12)C(=O)N[C@H](CCCNC(=N)N)C(=O)N[C@H](CC(C)C)C(=O)N[C@H](Cc1ccccc1)C(=O)N[C@H](CCCNC(=N)N)C(=O)N[C@H](CCCCN)C(=O)N[C@H](CCCNC(=N)N)C(=O)O [Chain306D] (H-[dR][dL][dK][dR][dW][dR][dL][dF][dR][dK][dR]-OH)	64
CC[C@@H](C)[C@@H](N)C(=O)N[C@H](Cc1c[nH]c2ccccc12)C(=O)N[C@H](CCCCN)C(=O)N[C@H](CCCNC(=N)N)C(=O)N[C@H](Cc1ccccc1)C(=O)N[C@H](CCCNC(=N)N)C(=O)N[C@H](CC(C)C)C(=O)N[C@H](Cc1ccccc1)C(=O)N[C@H](CCCCN)C(=O)N[C@H](CCCCN)C(=O)N[C@H](Cc1c[nH]c2ccccc12)C(=O)O [Chain304D] (H-[dI][dW][dK][dR][dF][dR][dL][dF][dK][dK][dW]-OH)	64
CC(C)C[C@@H](NC(=O)[C@@H](Cc1c[nH]c2ccccc12)NC(=O)[C@@H](Cc1ccccc1)NC(=O)[C@@H](Cc1c[nH]c2ccccc12)NC(=O)[C@@H](CCCCN)NC(=O)[C@@H](CCCNC(=N)N)NC(=O)[C@H](N)Cc1c[nH]c2ccccc12)C(=O)N[C@H](Cc1ccccc1)C(=O)N[C@H](CCCCN)C(=O)N[C@H](CCCCN)C(=O)N[C@H](CCCNC(=N)N)C(=O)O [Chain309D] (H-[dW][dR][dK][dW][dF][dW][dL][dF][dK][dK][dR]-OH)	128
CC(C)C[C@@H](NC(=O)[C@H](N)CCCCN)C(=O)N[C@H](CCCCN)C(=O)N[C@H](Cc1c[nH]c2ccccc12)C(=O)N[C@H](Cc1ccccc1)C(=O)N[C@H](Cc1c[nH]c2ccccc12)C(=O)N[C@H](CC(C)C)C(=O)N[C@H](Cc1ccccc1)C(=O)N[C@H](CCCCN)C(=O)N[C@H](CCCCN)C(=O)N[C@H](CCCNC(=N)N)C(=O)O [Chain311D] (H-[dK][dL][dK][dW][dF][dW][dL][dF][dK][dK][dR]-OH)	4
